This collection of values is drawn from patent US5753621A.

TEST_SUMMARY: Relative surface activity by dilution studies on the modified Wilhelmy Balance-Langmuir Trough
Type: physicochemical
CONDITIONS_USED: 1/4 dilution of equimolar stock with lipid mixture; 675 ug phospholipid
No end group written: not given here.
As shown below, each of these substances has a reported Mean Minimum Surface Tension, relative peptide concentration 1/4 value.
Expressed in mN/m, but write only the number.

Study these solved cases before continuing.
SUBSTANCE	VALUE_UNIT	ASSAY_RESULT
SP-B(58-78)diAla: SP-B positions 58-78, cysteines 71 and 77 replaced by alanine (LDTLLGRMLPQLVARLVLRAS; Pulmonary surfactant-associated protein B; UniProt P07988 258-278, looked up, variant C71A C77A)	mN/m	1.5
SP-B(69-78): synthesized SP-B peptide fragment, positions 69-78, 10 amino acids (LVCRLVLRCS; Pulmonary surfactant-associated protein B; UniProt P07988 269-278, looked up, fragment)	mN/m	13.8
SP-B(66-78): synthesized SP-B peptide fragment, positions 66-78, 13 amino acids (LPQLVCRLVLRCS; not fully specified; cysteine pairing not given here; UniProt P07988 266-278, looked up, fragment)	mN/m	6.7
SP-B(66-78)diLys: SP-B positions 66-78, cysteines 71 and 77 replaced with lysine (LPQLVKRLVLRKS; Pulmonary surfactant-associated protein B; UniProt P07988 266-278, looked up, variant C71K C77K)	mN/m	7.0

// Input: SP-B(53-78): replica of the 26 residue carboxyl terminal region of native human SP-B (YSVILLDTLLGRMLPQLVCRLVLRCS; Pulmonary surfactant-associated protein B; UniProt P07988 253-278, looked up, fragment) . Output its Mean Minimum Surface Tension, relative peptide concentration 1/4 only.
0.5

###

TEST_SUMMARY: Relative surface activity by dilution studies on the modified Wilhelmy Balance-Langmuir Trough
Type: physicochemical
CONDITIONS_USED: 1/8 dilution of equimolar stock with lipid mixture; 675 ug phospholipid
No end group written: not given here.
READOUT_TYPE: Mean Minimum Surface Tension, relative peptide concentration 1/8
For clarity, give the value followed by its unit.

// Input: SP-B(69-78): synthesized SP-B peptide fragment, positions 69-78, 10 amino acids (LVCRLVLRCS; Pulmonary surfactant-associated protein B; UniProt P07988 269-278, looked up, fragment) . Output its Mean Minimum Surface Tension, relative peptide concentration 1/8 only.
12.2 mN/m

// Input: SP-B(53-78): replica of the 26 residue carboxyl terminal region of native human SP-B (YSVILLDTLLGRMLPQLVCRLVLRCS; Pulmonary surfactant-associated protein B; UniProt P07988 253-278, looked up, fragment) . Output its Mean Minimum Surface Tension, relative peptide concentration 1/8 only.
2.0 mN/m

// Input: SP-B(66-78)diLys: SP-B positions 66-78, cysteines 71 and 77 replaced with lysine (LPQLVKRLVLRKS; Pulmonary surfactant-associated protein B; UniProt P07988 266-278, looked up, variant C71K C77K) . Output its Mean Minimum Surface Tension, relative peptide concentration 1/8 only.
15.0 mN/m

// Input: SP-B(58-78)diAla: SP-B positions 58-78, cysteines 71 and 77 replaced by alanine (LDTLLGRMLPQLVARLVLRAS; Pulmonary surfactant-associated protein B; UniProt P07988 258-278, looked up, variant C71A C77A) . Output its Mean Minimum Surface Tension, relative peptide concentration 1/8 only.
4.7 mN/m

// Input: SP-B(66-78): synthesized SP-B peptide fragment, positions 66-78, 13 amino acids (LPQLVCRLVLRCS; not fully specified; cysteine pairing not given here; UniProt P07988 266-278, looked up, fragment) . Output its Mean Minimum Surface Tension, relative peptide concentration 1/8 only.
14.9 mN/m

###

As shown below, each of these substances has a reported Surface tension Maximum (maximum bubble size) value.
TEST_SUMMARY: Pulsating Bubble Surfactometer (PBS) surface tension
Type: physicochemical
CONDITIONS_USED: after 5 minutes pulsation (100 cycles); 1 mg/ml phospholipid, peptide 2% of phospholipids; 0.15M NaCl; 37° C.; 20 cycles/minute; SD in parenthesis
No end group written: not given here. *: point of attachment. Acm = CC(=O)NC*

Study these solved cases before continuing.
SUBSTANCE	ASSAY_RESULT
SP-B(66-78)diLys: SP-B positions 66-78, cysteines 71 and 77 replaced with lysine (LPQLVKRLVLRKS; Pulmonary surfactant-associated protein B; UniProt P07988 266-278, looked up, variant C71K C77K)	55.1 (6.6) dyne/cm
SP-B(53-78): replica of the 26 residue carboxyl terminal region of native human SP-B (YSVILLDTLLGRMLPQLVCRLVLRCS; Pulmonary surfactant-associated protein B; UniProt P07988 253-278, looked up, fragment)	56.7 (2.9) dyne/cm
SP-B(69-78): synthesized SP-B peptide fragment, positions 69-78, 10 amino acids (LVCRLVLRCS; Pulmonary surfactant-associated protein B; UniProt P07988 269-278, looked up, fragment)	64.0 (5.0) dyne/cm
SP-B(58-78)diAla: SP-B positions 58-78, cysteines 71 and 77 replaced by alanine (LDTLLGRMLPQLVARLVLRAS; Pulmonary surfactant-associated protein B; UniProt P07988 258-278, looked up, variant C71A C77A)	52.0 (3.3) dyne/cm

// Input: SP-B(66-78): synthesized SP-B peptide fragment, positions 66-78, 13 amino acids (LPQLVCRLVLRCS; not fully specified; cysteine pairing not given here; UniProt P07988 266-278, looked up, fragment) . Output its Surface tension Maximum (maximum bubble size) only.
61.5 (5.4) dyne/cm

// Input: SP-B(53-78)diAcm: SP-B positions 53-78, cysteines 71 and 77 capped with S-acetamidomethyl (Acm) groups (YSVILLDTLLGRMLPQLVC(Acm)RLVLRC(Acm)S; UniProt P07988 253-278, looked up, fragment) . Output its Surface tension Maximum (maximum bubble size) only.
54.1 (2.6) dyne/cm

###

TEST_SUMMARY: Relative surface activity by dilution studies on the modified Wilhelmy Balance-Langmuir Trough
Type: physicochemical
CONDITIONS_USED: peptide 2% of solids (0.5 mg/ml); 675 ug phospholipid, 445 sq. cm trough
No end group written: not given here. *: point of attachment. Acm = CC(=O)NC*
Decision: Mean Minimum Surface Tension, relative peptide concentration 2% >= 3 mN/m yields Fulfilled, all other cases yield Not fulfilled.

For orientation, consider the following solved cases.
SUBSTANCE	LABEL_CLASS
SP-B(58-78)diAla: SP-B positions 58-78, cysteines 71 and 77 replaced by alanine (LDTLLGRMLPQLVARLVLRAS; Pulmonary surfactant-associated protein B; UniProt P07988 258-278, looked up, variant C71A C77A)	Not fulfilled
SP-B(66-78)diLys: SP-B positions 66-78, cysteines 71 and 77 replaced with lysine (LPQLVKRLVLRKS; Pulmonary surfactant-associated protein B; UniProt P07988 266-278, looked up, variant C71K C77K)	Not fulfilled
SP-B(53-78)diAcm: SP-B positions 53-78, cysteines 71 and 77 capped with S-acetamidomethyl (Acm) groups (YSVILLDTLLGRMLPQLVC(Acm)RLVLRC(Acm)S; UniProt P07988 253-278, looked up, fragment)	Not fulfilled
SP-B(53-78): replica of the 26 residue carboxyl terminal region of native human SP-B (YSVILLDTLLGRMLPQLVCRLVLRCS; Pulmonary surfactant-associated protein B; UniProt P07988 253-278, looked up, fragment)	Not fulfilled
SP-B(69-78): synthesized SP-B peptide fragment, positions 69-78, 10 amino acids (LVCRLVLRCS; Pulmonary surfactant-associated protein B; UniProt P07988 269-278, looked up, fragment)	Fulfilled

Let's switch to this substance now.
Given the entry SP-B(66-78): synthesized SP-B peptide fragment, positions 66-78, 13 amino acids (LPQLVCRLVLRCS; not fully specified; cysteine pairing not given here; UniProt P07988 266-278, looked up, fragment) , answer whether its Mean Minimum Surface Tension, relative peptide concentration 2% meets or surpasses 3 mN/m.
Not fulfilled

###

TEST_SUMMARY: Relative surface activity by dilution studies on the modified Wilhelmy Balance-Langmuir Trough
Format: physicochemical
CONDITIONS_USED: equimolar to 0.5 mg/mL SP-B(53-78); 675 ug phospholipid, 445 sq. cm trough
Decision: Mean Minimum Surface Tension, relative peptide concentration Equimolar >= 2 mN/m yields criterion met, all other cases yield criterion not met.

Given the entry SP-B(69-78): synthesized SP-B peptide fragment, positions 69-78, 10 amino acids (LVCRLVLRCS; Pulmonary surfactant-associated protein B; UniProt P07988 269-278, looked up, fragment) , answer whether its Mean Minimum Surface Tension, relative peptide concentration Equimolar meets or surpasses 2 mN/m.
criterion met

###

As shown below, each of these substances has a reported Mean Minimum Surface Tension, relative peptide concentration 1/2 value.
TEST_SUMMARY: Relative surface activity by dilution studies on the modified Wilhelmy Balance-Langmuir Trough
Format: physicochemical
CONDITIONS_USED: 1/2 dilution of equimolar stock with lipid mixture; 675 ug phospholipid
No end group written: not given here.
Expressed in mN/m, but write only the number.

Study these solved cases before continuing.
SUBSTANCE	ASSAY_RESULT
SP-B(69-78): synthesized SP-B peptide fragment, positions 69-78, 10 amino acids (LVCRLVLRCS; Pulmonary surfactant-associated protein B; UniProt P07988 269-278, looked up, fragment)	12.5
SP-B(66-78): synthesized SP-B peptide fragment, positions 66-78, 13 amino acids (LPQLVCRLVLRCS; not fully specified; cysteine pairing not given here; UniProt P07988 266-278, looked up, fragment)	2.8
SP-B(53-78): replica of the 26 residue carboxyl terminal region of native human SP-B (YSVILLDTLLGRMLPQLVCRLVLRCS; Pulmonary surfactant-associated protein B; UniProt P07988 253-278, looked up, fragment)	0.6
SP-B(66-78)diLys: SP-B positions 66-78, cysteines 71 and 77 replaced with lysine (LPQLVKRLVLRKS; Pulmonary surfactant-associated protein B; UniProt P07988 266-278, looked up, variant C71K C77K)	8.2

// Input: SP-B(58-78)diAla: SP-B positions 58-78, cysteines 71 and 77 replaced by alanine (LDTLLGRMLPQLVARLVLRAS; Pulmonary surfactant-associated protein B; UniProt P07988 258-278, looked up, variant C71A C77A) . Output its Mean Minimum Surface Tension, relative peptide concentration 1/2 only.
0.3
